System: beta-TC6 cells
Test: Insulin HTRF assay, relative activity Ar normalized to sunitinib
Type: cell-based
Conditions: Mus musculus, normalized to positive control sunitinib (5 µM = 100%), Table 10
QUANTITY KIND: Emax

Task: For the molecule shown here, `N#Cc1ccc(-c2ccc3nnc(-c4cccc(O)c4)n3c2)cc1` , give the reported Emax.
Output: 50 to 100%

Task: Another molecule: `CN(C)C(=O)c1cccc(-c2cn3c(-c4ccc(N(C)C)cc4)cnc3cn2)c1`
Output: 20 to 50%

Task: Another molecule: CC(C(=O)Nc1cnc2cnc(-c3cccc([N+](=O)[O-])c3)cn12)c1ccccc1 (stereo not drawn)
Output: 20 to 50%

The values you see were collected from patent EP2818471A1.
